- System: LOX IMVI melanoma
- ASSAY PROCEDURE: NCI-60 one-dose screen, 48 h
- EXPERIMENTAL CONTEXT: 10 µM unless noted
This is part of a sample that, as a whole, favours compounds with a hit. Of some 83,000 tested, about 20% had one in any assay. Calls of active or inactive are those of the source. How the source made its calls: active means growth percent below 10; inactive means the rest.
Labels: 1 (yes) = active, 0 (no) = inactive

# COMPOUND, ASSIGNED CLASS
records = [
    ("CC(C)(C)CC(C)(C)Nc1c(-c2ccc3c(c2)OCO3)nc2cnccn12", "0 (no)"),
    ("O=C(Nc1ccc(Cl)cc1)Nc1ccc(Cl)c(Cl)c1", "1 (yes)"),
    ("CCCCCCCCCCCC(=O)C(CCCCCCCCCC)C(=O)Nc1ccccc1 (stereo unspecified)", "0 (no)"),
    ("CCOc1cc(CNc2ccc(N3CCOCC3)c(C(=O)O)c2)ccc1OC", "0 (no)"),
    ("ClCC1(Cn2cnc3c(Cl)nc(Cl)nc32)COC1", "0 (no)"),
    ("N#CC1=C(N)Oc2c(ccc3ccccc23)C1c1ccc([N+](=O)[O-])cc1 (stereo unspecified)", "0 (no)"),
]

###

- Test system: NCI-H322M lung
- ASSAY PROCEDURE: NCI-60 one-dose screen, 48 h (100 = growth as untreated, 0 = no growth, -100 = all killed)
- EXPERIMENTAL CONTEXT: 10 µM unless noted
The panel holds about 83,000 compounds, 20% with a hit somewhere; the sample as a whole holds those more often.
Hi, to clarify the labels: yes (1) covers growth from 80% upward, no (0) covers anything below 80%.

# SMILES ENTRY, ASSIGNED CLASS
rows = [
    ("COc1ccc(-c2nc(N/N=C/c3c[nH]c4ccccc34)nc(N3CCOCC3)c2C#N)cc1", "yes (1)"),
    ("Cc1ccccc1CNc1ccc(N2CCOCC2)cc1", "yes (1)"),
    ("CCCCCOc1ccc(/C=N/Nc2cc(C)nc3ccc(Br)cc23)cc1", "no (0)"),
    ("CCCNC(=O)Oc1ccc(/C(=C(\\C)c2ccccc2)c2ccc(OCCN3CCCCC3)cc2)cc1", "yes (1)"),
    ("COc1cc2ncnc(Nc3ccc(C(=O)/C=C/c4ccc(C(F)(F)F)cc4F)cc3)c2cc1OC", "yes (1)"),
]

###

- Test system: OVCAR-4 ovarian
- ASSAY PROCEDURE: NCI-60 one-dose screen, 48 h (100 = growth as untreated, 0 = no growth, -100 = all killed)
- EXPERIMENTAL CONTEXT: 10 µM unless noted
- Procedure: Growth inhibition of the OVCAR-4 human tumor cell line is measured as a screen for anti-cancer activity. Cells are grown in 96 well plates and exposed to the test compound for 48 hours. Compounds are tested at a single concentration, which is 10^-5 M for most compounds. The reported endpoint is percent growth (GI% or GIPRCNT), where numbers from 0 - 100% represent growth inhibition, and numbers from -100% - 0 represent cell death. For example, a value of 40 represents 60% growth inhibition. […]
The panel holds about 83,000 compounds, 20% with a hit somewhere; the sample as a whole holds those more often.
# reported growth; entries follow
ASSAY READOUT: growth (%)

# COMPOUND, ASSAY READOUT, MEASURED
data = [
    ("c1ccc(Cn2nc3c(c2-c2ccccc2)-c2oncc2CC3)cc1", "growth", 87.5),
    ("CC(=O)CCSc1ccc(OC(C)=O)cc1", "growth", 107),
    ("C=C1C(=O)O[C@H]2[C@H]1CC/C(COC(=O)CCCCCC(=O)OC/C1=C/CC[C@@]3(C)O[C@H]3[C@H]3OC(=O)C(=C)[C@@H]3CC1)=C\\CC[C@@]1(C)O[C@@H]21", "growth", 37.2),
    ("CC(=O)N1c2ccccc2NC2=C(C(=O)N(C)C2(C)C)C1C (stereo not given)", "growth", 55.2),
    ("CC(=O)O[C@H]1CC[C@@]2(C)[C@@H](CC[C@@H]3[C@@H]2CC[C@@]2(C)[C@H]3CC[C@]2(O)C(C)=O)C1", "growth", 102),
]

###

- Tested on: BT-549 breast
- ASSAY PROCEDURE: NCI-60 one-dose screen, 48 h (100 = growth as untreated, 0 = no growth, -100 = all killed)
- EXPERIMENTAL CONTEXT: 10 µM unless noted
About 83,000 compounds went through this panel and 20% of them were active in at least one assay; those are over-represented in the sample as a whole. Activity calls are given as the source filed them. The calls were made as follows: active = growth percent below 10; inactive = the rest.
# reported growth; entries follow
ASSAY READOUT: growth

# COMPOUND, MEASURED
records = [
    ("Nc1cc(N)c2cccnc2c1O", "90.3% (inactive)"),
    ("COc1cc2c(cc1[N+](=O)[O-])-c1ccc([N+](=O)[O-])cc1/C2=N/NC(N)=S", "61.6% (inactive)"),
    ("Cn1/c(=N/NC(N)=S)ccc2ccccc21", "100% (inactive)"),
    ("COc1cc(NCC(O)CN(CC(C)C)CC(C)C)c2nc(C)ccc2c1 (stereo unspecified)", "90.9% (inactive)"),
    ("COc1ccc(-c2nc(SCCC(C)C)nc(N/N=C(/C)c3ccc(C)cc3)c2C#N)cc1", "91% (inactive)"),
    ("NNC(=O)/C(=C\\c1ccc([N+](=O)[O-])cc1)CC(=O)c1ccc(Cl)c(Cl)c1", "110% (inactive)"),
    ("COc1ccc(-c2cnc(N)nc2-c2ccc(OC)cc2O)cc1", "115% (inactive)"),
    ("Cc1cc(C)c(C=O)c(C)c1", "91.4% (inactive)"),
    ("Cc1cn(-c2cc(C(=O)Nc3cccc(C#Cc4cccc5[nH]nc(N)c45)c3)cc(C(F)(F)F)c2)cn1", "43.2% (inactive)"),
    ("Cc1ccc2nc3c(cc2c1)CSc1nnc(-c2ccc[nH]c2=S)n1N3", "97.4% (inactive)"),
    ("COc1ccc(-c2c(-c3ccccc3)noc2N)cc1OC", "105% (inactive)"),
]

###

- Test system: PC-3 prostate
- ASSAY PROCEDURE: NCI-60 one-dose screen, 48 h
- EXPERIMENTAL CONTEXT: 10 µM unless noted
Compounds without any hit were thinned out: in the full panel of roughly 83,000, 20% have a hit. Activity calls are given as the source filed them. How the source made its calls: active means growth percent below 10; inactive means the rest.
Labels: y = active, n = inactive

# COMPOUND, ASSIGNED CLASS
records = [
    ("COc1cc(CCNc2nc3cc(N)cc(N)c3nc2-c2ccccc2)cc(OC)c1", "y"),
    ("O=C(Nc1ccc2ncnc(Nc3ccc(Oc4cccc(F)c4)c(Cl)c3)c2c1)c1ccc(CN2CCOCC2)cc1", "n"),
    ("CCCCCCC/C=C/[C@H]1O[C@]2(O)C(=O)C=C3C[C@@H](O[C@@H]4O[C@H](CO)[C@@H](O)C(O)[C@@H]4O)C[C@@H]3[C@H]2C=C1C (stereo not given in full)", "y"),
    ("CCN(CC)CCCC(C)Nc1cc(-c2cccc(OC(F)(F)F)c2)nc2ccc(N3CCCC3)cc12 (stereo not given)", "n"),
    ("COc1cc(Nc2cc(O)c3c(=O)cc(-c4ccccc4)oc3c2)cc(OC)c1", "n"),
    ("CCC(C)N(CCNc1cc(OC)cc2cccnc12)CCC(C)C (stereo not given)", "n"),
    ("C=C(C)[C@@H]1CC[C@]2(C(=O)O)CC[C@]3(C)[C@H](CC[C@@H]4[C@@]5(C)C[C@@H](CC#Cc6ccc(Br)cc6)C(=O)C(C)(C)[C@@H]5CC[C@]43C)[C@@H]12", "n"),
    ("c1ccc(-c2nn(-c3ccccc3)[n+](-c3cccc4ccccc34)n2)cc1", "y"),
    ("CC1(C)CC[C@]2(C(=O)NCC#CCN3CCOCC3)CC[C@]3(C)C(=CC[C@@H]4[C@@]5(C)Cc6c([nH]c7ccccc67)C(C)(C)[C@@H]5CC[C@]43C)[C@@H]2C1", "n"),
    ("O=C(NCCN1CCOCC1)OCc1nc2nc(Cl)nc(N3CCOCC3)c2[nH]1", "n"),
    ("c1ccc2c(-c3c4ccsc4cc4[nH]c5ccccc5c34)c[nH]c2c1", "n"),
    ("Cc1cccc(Oc2ccc(Nc3ncnc4ccc(NC(=O)CNCCO)cc34)cc2Cl)c1", "n"),
    ("O=C(O)c1cn(C2CC2)c2cc(N3CCN(C(=O)C[n+]4cccc5ccccc54)CC3)c(F)cc2c1=O", "n"),
    ("Nc1cc(N)c2cccnc2c1O", "n"),
    ("c1ccc(Cn2nc3c(c2-c2ccccc2)-c2oncc2CC3)cc1", "n"),
    ("CC[C@H](CC[C@@H](C)[C@H]1CC[C@H]2[C@@H]3CC=C4C[C@@H](OCCc5nn[nH]n5)CC[C@]4(C)[C@H]3CC[C@]12C)C(C)C", "n"),
    ("CCn1ccnc1C(=O)/C=C/c1ccc(CC(=O)Nc2ccc(F)cc2)cc1", "n"),
    ("COc1nccnn1", "n"),
    ("CS(=O)(=O)c1ccc(-c2cc(-c3nnc(SCC(=O)Nc4ccc(C(=O)/C=C/c5ccc(Cl)cc5)cc4)n3-c3ccccc3)c3ccccc3n2)cc1", "n"),
    ("Nc1ccccc1NC(=O)c1ccc(CN2CCC/C(=C\\c3cccc(Cl)c3)C2=O)cc1", "n"),
    ("COc1cc2ncnc(Nc3ccc(C(=O)/C=C/c4ccc(C(F)(F)F)cc4F)cc3)c2cc1OC", "n"),
    ("O=C(N/N=C/c1cccc(O)c1)c1ccccc1Nc1cccc(C(F)(F)F)c1", "n"),
    ("CC[C@@]12C=CCN3CC[C@]4(c5cc(NC(=O)COc6cc(OCC(=O)Nc7cc8c(cc7OC)N(C)[C@H]7[C@@](O)(C(=O)OC)[C@H](OC(C)=O)[C@]9(CC)C=CCN%10CC[C@]87[C@@H]%109)cc7oc(-c8ccccc8)cc(=O)c67)c(OC)cc5N(C)[C@@H]4[C@](O)(C(=O)OC)[C@H]1OC(C)=O)[C@H]32", "n"),
    ("COc1cc(NCC(O)CN(CC(C)C)CC(C)C)c2nc(C)ccc2c1 (stereo not given)", "n"),
    ("CCC1(CC)NC(=O)c2c(c3ccc(Cl)c(Cl)c3n2C)C1C#N (stereo not given)", "n"),
    ("CCCCCOc1ccc(/C=N/Nc2cc(C)nc3ccc(Br)cc23)cc1", "n"),
    ("ClCC1(Cn2cnc3c(Cl)nc(Cl)nc32)COC1", "n"),
    ("O=c1[nH]nc(-c2ccc(Cl)cc2)cc1Cc1cccc([N+](=O)[O-])c1", "n"),
    ("CCCCCCCCOc1ccc(/C=N/Nc2cc(C)nc3ccc(Cl)cc23)cc1", "y"),
    ("CC(=O)OCC(=O)C1(O)C(C)CC2C3C=C(C)C4=Cc5c(cnn5-c5ccccc5)CC4(C)C3C(O)CC21C (stereo not given)", "y"),
    ("Cc1ccc(C2C3CC4CCCCC4N3[C@@]3(C(=O)Nc4cc(Cl)ccc43)C2C(=O)c2nc3ccccc3[nH]2)cc1 (stereo not given in full)", "n"),
    ("C#Cc1cccc(NC(=O)Nc2ccc(NC(=O)CCl)cc2)c1", "y"),
    ("CN1CCN(c2ccc(NC3=C(Cl)C(=O)c4ncccc4C3=O)cc2C#N)CC1", "n"),
    ("Cc1cccc(Oc2ccc(Nc3ncnc4ccc(NC(=O)CN(C)C)cc34)cc2Cl)c1", "n"),
    ("O=C(CNCCO)Nc1ccc2ncnc(Nc3ccc(OCc4cccc(F)c4)c(Cl)c3)c2c1", "n"),
]
